- SYSTEM UNDER TEST: T1, TRAF2, Q12933
- T1 chain: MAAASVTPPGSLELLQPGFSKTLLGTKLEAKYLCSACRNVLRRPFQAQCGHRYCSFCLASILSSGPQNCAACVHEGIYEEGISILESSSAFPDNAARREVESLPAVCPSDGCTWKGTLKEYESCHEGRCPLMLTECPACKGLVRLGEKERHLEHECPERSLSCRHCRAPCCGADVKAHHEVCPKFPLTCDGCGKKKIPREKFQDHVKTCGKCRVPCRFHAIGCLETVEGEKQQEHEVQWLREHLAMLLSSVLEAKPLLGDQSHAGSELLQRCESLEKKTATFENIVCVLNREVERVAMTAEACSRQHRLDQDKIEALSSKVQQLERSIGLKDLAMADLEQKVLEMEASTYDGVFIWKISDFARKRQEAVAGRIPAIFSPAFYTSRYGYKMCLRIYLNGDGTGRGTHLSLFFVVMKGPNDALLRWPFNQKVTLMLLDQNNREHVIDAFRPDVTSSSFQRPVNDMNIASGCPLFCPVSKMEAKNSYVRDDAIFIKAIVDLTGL
- EXPERIMENTAL DETAILS: median log2 fold change of GCK-ALFA target abundance (FLAG IP / Myc IP barcode read proportion) (log2 ratio); each designed protein is fused to an ALFA-tag nanobody in HEK293 cells to bring the named protein to FLAG-tagged glucokinase (GCK); Myc marks an untargeted standard; higher = target protein stabilised (more abundant)
- CONDITION LABEL: target protein: 3xFLAG-MCP-GCK-ALFA reporter; HEK293 landing pad (RPLP)
Over roughly 1,800 sequences, “median log2 fold change of GCK-ALFA target abundance (FLAG IP / Myc IP barcode read proportion)” has its median near 0.14; the lowest 2% begin near -0.84. This is one part of a sample in which the lowest values are shown more often than they occur.
MEASURE NAME: median log2 fold change

INSERT INTO assay_data (binder, value_measured) VALUES
  ('traf2_out_3_77_2274 (protein) SMKKEEIREKLDEATTLAIASLAVNAINNPEKAEEFREMARIVHRARAIAKEKGKEEELLPLIEEAKEAADKLNEGDESALEKLKEIVKKIGELAEKWEK', 0.354),
  ('traf2_out_1_158_912 (protein) DTKKKLMLSSVELVVKDAVESARENGDEETAKAIEELGEKIIELVKKLAIEEGKSVEEVIEEIDKLAAEFKAKADPETAAAIERLTRRVKSALRQVEKLM', 0.0872),
  ('traf2_out_17_162_1548 (protein) GELEERLKELEEELEELERRAEELESLLPELPKLSKEELTDLLVEASEARRRARRLAEEIEKLKEEIGEERAEELRERAEEIAERLQRIANAIYKELEKK', 0.22),
  ('traf2_out_18_167_1872 (protein) SAELKKKREELTDELVRYSTIRRALLLILEALKRSREEARRLLEEYVEKYPDSEVLREALEVFETKSDEEFRKFLEEKAEELQKEANEKYKELEELEKEE', 0.106);
